Can you tell me T/C for the items I'm about to list?
System: P388 leukemia ip, CD2F1 mice, survival T/C
Assay: NCI In Vivo Anticancer Drug Screen. Data for tumor model P388 Leukemia (intraperitoneal) in CD2F1 (CDF1) mice
Details: endpoint: median survival time; dose: 12.5 mg/kg/injection; schedule: Q01DX009 (ip); vehicle: saline; higher = longer survival
Inconclusive results and toxic doses are left out.

I'm hoping you can list T/C for every compound here, please.
1. O=S(=O)(O)O.[Cu+2].[NH2-].[NH2-].[NH2-].[NH2-]
2. COCC(CN1CCN(c2ccccc2OC)CC1)OC (stereo not given)
3. OC1CCOC1 (stereo not given)
4. CCCCCCCCCCCCCCCCNCCCS(=O)(=O)O
5. c1ccc(CC[n+]2ccccc2)cc1

1. 93 % of control
2. 97 % of control
3. 97 % of control
4. 100 % of control
5. 88 % of control

----------
Tested on: P388 leukemia ip, CD2F1 mice, survival T/C
Assay: NCI In Vivo Anticancer Drug Screen. Data for tumor model P388 Leukemia (intraperitoneal) in CD2F1 (CDF1) mice
Conditions: endpoint: median survival time; dose: 200.0 mg/kg/injection; schedule: Q01DX009 (ip); vehicle: suspension in saline; higher = longer survival
Inconclusive results and toxic doses are left out.
Readout: T/C

These recorded examples may help you get a feel for the data.
Cc1ccc(N2C(=O)CSC2=S)cc1Br :: 93 % of control
O=c1[nH]cc(N=Cc2ccccc2F)c(=O)[nH]1 :: 96 % of control
O=C(O)c1cc2cccc([N+](=O)[O-])c2[se]1 :: 113 % of control
Cc1cc(N2C(=O)CCSC2=S)c([N+](=O)[O-])cc1C :: 94 % of control

Provide measured T/C on P388 leukemia ip, CD2F1 mice, survival T/C for "CC(=O)CS(=O)(=O)c1ccc(NC(C)=O)cc1" please.
101 % of control

----------
Test system: P388 leukemia ip, CD2F1 mice, survival T/C
Experiment: NCI In Vivo Anticancer Drug Screen. Data for tumor model P388 Leukemia (intraperitoneal) in CD2F1 (CDF1) mice
Conditions: endpoint: median survival time; dose: 200.0 mg/kg/injection; schedule: Q01DX001 (ip); vehicle: Klucel (hydroxypropylcellulose) (HPC); higher = longer survival
Toxic doses and inconclusive results are not listed.
Readout: T/C

Below, 3 compounds whose answers are already recorded.
O=[N+]([O-])c1ccc(N=Nc2ccc(N(CCCl)CCCl)cc2)c([N+](=O)[O-])c1 :: 108 % of control
C1COCCOCCOCCO1.[Cl][Sn]([Cl])([Cl])[Cl] :: 90 % of control
CCOC(=O)C1(C(=O)O)CCCN(C(=O)OCc2ccccc2)C1Cc1ccccc1 (stereo unspecified) :: 102 % of control

State the recorded T/C for every item in the following list.
1. NS(=O)(=O)c1ccc(N=CC2C(=O)N(c3ccccc3)N(c3ccccc3)C2=O)cc1
2. C/C(=N/N(C)C)c1ccc(Cl)cc1
3. COc1ccc(/C=C/C(C)=O)c(OC)c1
4. COc1cc(CC(=O)NCCc2ccsc2)c(CO)cc1OCc1ccccc1
5. Cn1c2ccccc2c2cnn3cnnc3c21
6. C(NC=C(c1ccccc1)c1ccccc1)=C(c1ccccc1)c1ccccc1
7. CCC1(C(=O)Sc2ccccc2)OC1c1ccccc1 (stereo unspecified)
8. O=S1(=O)Cc2ccccc21

1: 89 % of control; 2: 108 % of control; 3: 101 % of control; 4: 101 % of control; 5: 96 % of control; 6: 107 % of control; 7: 90 % of control; 8: 98 % of control

Reference source: PubChem BioAssay AID330
